Assay: NCI Yeast Anticancer Drug Screen. Data for the bub3 strain (AID 167)
Details: S. cerevisiae bub3 mutant strain, at 50.0 µM, hits give high values
This is part of a sample that, as a whole, favours compounds with a hit. Of some 79,000 tested, about 15% had one in any assay.
Entries annotated with measured growth inhibition

{"columns": ["molecule", "growth inhibition [%]"],
 "data": [
  ["CC(C)(C)C([O-])=C1C(=O)c2ccccc2C1=O.CC(C)(C)C([O-])=C1C(=O)c2ccccc2C1=O.CC[O-].CC[O-].[Ti+4]", 59.2],
  ["CC1(c2cccc3c2C2(O)C=CC4(CCC32)OCCO4)OCCO1 (stereo not given)", -61.1],
  ["O=C1OC2c3ccccc3CC1C2CO (stereo not given)", 2],
  ["COCCCNc1ccc([N+](=O)[O-])cn1", -13],
  ["CC(=O)C(C)CO (stereo not given)", 9.2],
  ["O=C(O)CCC1(C(=O)O)NCCc2c1[nH]c1ccccc21 (stereo not given)", 7.9],
  ["CCCO[C@@H]1[C@@H](OC(C)=O)[C@@H](OC(C)=O)C(C)(C)/C=C/[C@H](C)C(=O)[C@@]2(OC(C)=O)C[C@@](C)(OC(C)=O)[C@H](OC(C)=O)[C@@H]2[C@H]2OC(=O)CC[C@@]12OC(=O)c1ccccc1", -48.8],
  ["COC(=O)c1ccc(OC(=O)Nc2ccc(C)cc2)cc1", 13.6],
  ["O=C1NC(=S)NC(=O)C1=Cc1ccccc1OCc1ccccc1", 1.6],
  ["NCCC(=O)OC1CCCc2c(O)c3c(c(O)c21)C(=O)c1ccccc1C3=O (stereo not given)", 98.8],
  ["O=C1/C(=C/c2ccccc2)Oc2cc(O)ccc21", 27.4],
  ["CC1C2CC(C(S(=O)(=O)O)C2=O)C1(C)C (stereo not given)", -36.8],
  ["COc1cccc2c1CCC(=O)C2C (stereo not given)", 13.6],
  ["COC(=O)N1C(C#N)=CCc2ccccc21", 3.8],
  ["C#CCC[N+](C)(C)C", -7.45]
]}
